measured.target: Neu5Gc(b2-6)Gal(b1-4)GlcNAc
method.description: glycan array binding signal (z-score within array); higher = stronger binding
conditions: glycan notation: IUPAC condensed, linker removed
This is one part of a sample in which the strongest signals are shown more often than they occur.
readout: glycan array binding signal (z-score)
No unit in the answer, please; the number alone is enough.

Worked set:
binder	glycan array binding signal (z-score)
SRS6 (Toxoplasma gondii), Q9NH12 (protein) MARTGSMQQRRGGFQTTARMLMAVCVSGVLLLSSGPSSANKLTEGQQNQNSGPGAATQEGPTIEGAVAKCVLKTTAAENGSSRAKNTTGLTLSKENLVVSLQCSGEKNAIVPKDQKKVCSAAPNAKVADCKGADTDKQVTLKSLLGTSGDIQWEKTIVSTDNKGEVMTLKIKESELPLFDKAFFVGCEEDKAQTRTSQATECKVNVSVKARPSTVGENNVVTCAYGKDSNPRPLEVEMSADNDTLTIDCGTDGSLKPTKYTEEFCVTDNSQLESCTTKKFSEILPTFLPSWWVSDSQNGSAKLTIPESGFPEEQQQFRLGCVPKKTTQSPQANPSVKTEKEEGAQNTDASTSNCSVIVTVKASNFSSLASSIAPTAAVAGGAAALTGFLVGSF	0.403
PGP3 (Chlamydia trachomatis), P0CE18 (protein) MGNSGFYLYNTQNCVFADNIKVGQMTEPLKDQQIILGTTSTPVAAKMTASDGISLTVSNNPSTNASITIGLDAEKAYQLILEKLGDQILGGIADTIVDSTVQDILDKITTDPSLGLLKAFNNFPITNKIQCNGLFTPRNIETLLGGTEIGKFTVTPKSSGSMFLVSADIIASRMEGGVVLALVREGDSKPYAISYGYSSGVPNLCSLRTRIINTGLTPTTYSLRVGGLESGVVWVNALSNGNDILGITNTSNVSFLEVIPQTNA	-1.1
Epa23 (Candida glabrata) (protein) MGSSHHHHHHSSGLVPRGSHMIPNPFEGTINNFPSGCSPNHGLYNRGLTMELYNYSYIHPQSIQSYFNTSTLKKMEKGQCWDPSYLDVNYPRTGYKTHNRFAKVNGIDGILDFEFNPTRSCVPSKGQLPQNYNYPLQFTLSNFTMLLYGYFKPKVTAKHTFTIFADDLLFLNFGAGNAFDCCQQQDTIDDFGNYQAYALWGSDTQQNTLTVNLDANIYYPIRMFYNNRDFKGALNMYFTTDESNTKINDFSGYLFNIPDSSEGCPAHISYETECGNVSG	-0.194

So for Pbx1CASH domain (Cryptococcus neoformans) (protein) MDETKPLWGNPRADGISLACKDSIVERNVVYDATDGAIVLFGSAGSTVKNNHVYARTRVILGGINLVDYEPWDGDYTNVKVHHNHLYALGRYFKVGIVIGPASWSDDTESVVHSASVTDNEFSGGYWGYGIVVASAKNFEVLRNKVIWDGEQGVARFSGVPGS , the logged glycan array binding signal (z-score) turned out to be 2.35
